Just for reference, paper PMC6222476 is where these values come from.

Test system: HT-29 human colon cancer cell line
Assay: cells
Format: cell-based
Conditions: Homo sapiens; SRB assay, 48 h, HT-29
Measured Metric: GI50

Compound: CCOP(=O)(OCC)C(N/N=C1\C(=O)Nc2ccccc21)c1ccccc1O (stereo not drawn)
GI50: 26100 nM
--
Compound: CCOP(=O)(OCC)C(N/N=C1\C(=O)Nc2ccccc21)c1ccc(O)c(C)c1 (stereo not drawn)
GI50: < 100 nM
--
Compound: CCOP(=O)(OCC)C(N/N=C1\C(=O)Nc2ccccc21)c1scnc1C (stereo not drawn)
GI50: < 100 nM
--
Compound: CCOP(=O)(OCC)C(NN=C1C(=O)Nc2ccccc21)c1ccc(O)cc1 (stereo not drawn)
GI50: < 100 nM

Incoming: For CCOP(=O)(OCC)C(N/N=C1\C(=O)Nc2ccccc21)c1ccc([N+](=O)[O-])cc1 (stereo not drawn) , what is its reported GI50?
Outgoing: < 100 nM

Incoming: Moving on to the next compound: COc1cccc2c1C(=O)c1c(O)c3c(c(O)c1C2=O)C[C@@](O)(C(=O)CO)C[C@@H]3O[C@H]1C[C@H](N)[C@H](O)[C@H](C)O1 [ADR, Adriamycin, reference compound]
Outgoing: < 100 nM
